Target: human recombinant mGluR5 (Homo sapiens, UniProt P41594)
Construct: expressed in transfected cells; host or cells: HEK 293 cell line, cultured with tetracycline, hygromycin and geneticin; tetracycline is withdrawn 3-7 days before the assay
Sequence (P41594 21-1212): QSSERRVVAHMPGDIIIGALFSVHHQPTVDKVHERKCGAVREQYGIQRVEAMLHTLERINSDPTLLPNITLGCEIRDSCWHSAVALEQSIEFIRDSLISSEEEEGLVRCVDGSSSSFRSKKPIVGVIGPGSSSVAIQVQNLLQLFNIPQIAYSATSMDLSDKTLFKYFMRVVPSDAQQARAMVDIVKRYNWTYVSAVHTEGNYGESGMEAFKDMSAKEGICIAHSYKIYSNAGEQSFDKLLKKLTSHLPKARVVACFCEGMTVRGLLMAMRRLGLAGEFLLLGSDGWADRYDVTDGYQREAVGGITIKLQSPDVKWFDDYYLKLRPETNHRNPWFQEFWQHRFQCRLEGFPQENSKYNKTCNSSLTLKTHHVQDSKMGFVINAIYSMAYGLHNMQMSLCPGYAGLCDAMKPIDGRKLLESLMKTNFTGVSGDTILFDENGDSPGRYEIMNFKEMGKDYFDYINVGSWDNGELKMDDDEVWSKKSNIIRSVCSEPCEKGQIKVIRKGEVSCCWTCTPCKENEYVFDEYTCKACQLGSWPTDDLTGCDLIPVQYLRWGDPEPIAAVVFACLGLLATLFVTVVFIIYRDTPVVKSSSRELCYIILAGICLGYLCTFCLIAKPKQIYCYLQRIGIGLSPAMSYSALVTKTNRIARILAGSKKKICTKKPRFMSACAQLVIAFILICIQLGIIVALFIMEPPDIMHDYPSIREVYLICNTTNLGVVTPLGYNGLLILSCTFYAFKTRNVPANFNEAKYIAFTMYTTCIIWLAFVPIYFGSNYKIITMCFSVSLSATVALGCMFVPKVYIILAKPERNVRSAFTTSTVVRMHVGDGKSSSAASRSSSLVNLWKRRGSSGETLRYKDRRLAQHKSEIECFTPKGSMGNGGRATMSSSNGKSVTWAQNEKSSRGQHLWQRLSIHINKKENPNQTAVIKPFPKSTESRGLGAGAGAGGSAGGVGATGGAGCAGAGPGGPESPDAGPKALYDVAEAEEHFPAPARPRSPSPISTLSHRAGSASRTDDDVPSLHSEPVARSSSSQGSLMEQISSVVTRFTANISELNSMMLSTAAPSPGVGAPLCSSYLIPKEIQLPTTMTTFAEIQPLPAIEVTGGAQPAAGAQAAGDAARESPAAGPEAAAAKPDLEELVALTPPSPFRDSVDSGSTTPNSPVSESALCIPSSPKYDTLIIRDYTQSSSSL
Assay: positive modulation of mGluR5, calcium based FLIPR assay
Assay type: cell-based
Conditions: EC50 of the modulation; HEK 293 cell line expressing human recombinant mGluR5; peak height of Ca fluorescence signal after glutamate at approx. 5% basal stimulation; read-out: EC50
MEASUREMENT_LABEL: EC50 (nM)
One number for each entry, in nM.

Below, each entry is followed by its recorded EC50 result.
1) N#Cc1ccc2c(c1)CCN(C(=O)Cn1nc(-c3ccc(F)cc3)nc1-c1ccc(F)cc1)C2 [Example 7.02.48.] ... 972
2) Cc1nc2c(s1)CCN(C(=O)Cn1nc(-c3ccc(F)cc3)nc1-c1ccc(F)cn1)CC2 [Example 7.03.117.] ... 889
3) CC(C)c1nnc(C2CCN(C(=O)Cn3nc(-c4ccc(F)cc4)nc3-c3ccc(F)cc3)CC2)o1 [Example 7.03.033.] ... 474
4) Cc1nc2c(s1)CN(C(=O)Cn1nc(-c3ccc(F)cc3)nc1-c1ccc(F)cc1)CC2 [Example 7.02.56.] ... 932
5) O=C(Cn1nc(-c2ccc(F)cc2)nc1-c1ccc(F)cc1)N1CCc2nc(C3CCCCC3)sc2CC1 [Example 7.03.032.] ... 868

Lab note: each compound below needs its EC50 filled in.
1. O=C(Cn1nc(-c2ccc(F)cc2)nc1-c1ccc(F)cc1)N1CCC(c2noc3ccccc23)CC1 [Example 7.02.01.]
2. O=C(Cn1nc(-c2ccc(F)cc2)nc1-c1ccc(F)cc1)N1CCc2nc(N3CCCCC3)sc2CC1 [Example 7.04.04.]
3. O=C(Cn1nc(-c2ccc(F)cc2)nc1-c1ccc(F)cc1)N1CCc2cc(O)ccc2C1 [Example 7.02.53.]
4. Cc1nc2c(s1)CCN(C(=O)Cn1nc(-c3ccc(F)c(C)c3)nc1C1CCC(C)CC1)CC2 (stereo not drawn) [Example 7.03.090.]
5. Cc1nc2c(s1)CCN(C(=O)Cn1nc(-c3ccc(F)c(C)c3)nc1-c1ccc(F)c(C)c1)CC2 [Example 7.03.084.]

Reply text:
1. 178
2. 561
3. 229
4. 420
5. 52
